Tested system: Axl (Homo sapiens)
Construct: endogenous in cells; host or cells: HeLa cells
Sequence (P30530 26-894): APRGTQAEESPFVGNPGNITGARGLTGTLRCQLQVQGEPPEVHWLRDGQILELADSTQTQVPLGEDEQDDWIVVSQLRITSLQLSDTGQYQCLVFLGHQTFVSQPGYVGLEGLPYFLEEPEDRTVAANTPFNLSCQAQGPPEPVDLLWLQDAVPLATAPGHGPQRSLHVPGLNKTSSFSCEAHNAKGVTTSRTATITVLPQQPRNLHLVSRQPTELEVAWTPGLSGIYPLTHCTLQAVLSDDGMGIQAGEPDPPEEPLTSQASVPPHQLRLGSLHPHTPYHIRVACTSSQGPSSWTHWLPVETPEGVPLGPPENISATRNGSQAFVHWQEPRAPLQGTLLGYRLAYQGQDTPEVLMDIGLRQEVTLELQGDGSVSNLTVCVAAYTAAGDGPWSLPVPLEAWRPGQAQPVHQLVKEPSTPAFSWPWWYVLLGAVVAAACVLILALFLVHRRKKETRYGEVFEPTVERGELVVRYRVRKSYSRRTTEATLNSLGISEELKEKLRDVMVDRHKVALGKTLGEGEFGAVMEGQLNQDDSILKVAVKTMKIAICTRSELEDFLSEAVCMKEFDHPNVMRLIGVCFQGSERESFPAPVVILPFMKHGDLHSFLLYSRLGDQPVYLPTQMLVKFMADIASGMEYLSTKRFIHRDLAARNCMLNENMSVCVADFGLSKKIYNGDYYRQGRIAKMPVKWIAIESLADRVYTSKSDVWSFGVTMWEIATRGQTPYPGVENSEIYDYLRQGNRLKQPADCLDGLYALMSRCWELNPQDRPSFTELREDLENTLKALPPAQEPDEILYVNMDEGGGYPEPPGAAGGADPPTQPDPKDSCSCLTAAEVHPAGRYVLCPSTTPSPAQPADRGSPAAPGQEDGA
Measurement protocol: Phospho-Akt in-cell Western assay (inhibition of Axl activity, Axl-antibody cross-linking stimulation)
Assay type: cell-based
Condition set: Hela cells, phospho-Akt readout; compounds of formula (Ia), Table 1
Protocol: The compounds of the invention were tested in the following assay for their ability to inhibit Axl activity. Phospho-Akt in-Cell Western Assay […]
pIC50: −log10 of the molar value.
Measured pIC50 of individual entries

Reference set (3 entries):
compound=COc1cc2ncnc(-n3nc(Nc4ccc(C=CCN5CCCCC5)nc4)nc3N)c2cc1OC result="> 6.00"
compound=Cc1cc(Nc2nc(N)n(-c3nnc(C)c4ccsc34)n2)cnc1N1CCN([C@H]2C[C@@H]3CC[C@H]2C3)CC1 result="< 4.70"
compound="Cc1csc2c(-n3nc(Nc4cnc5c(c4)CC(N(CC4CC4)CC4CC4)CC5)nc3N)nc(Cl)nc12 (stereo not shown)" result="> 6.00"

Request the reported pIC50 associated with "COc1cc2ncnc(-n3nc(Nc4ccc5sc(C(=O)N6CCN(CCN(C)C)CC6)cc5c4)nc3N)c2cc1OC"
5.00 to 6.00

Any idea what its pIC50 is? The compound is "COc1cc2ncnc(-n3nc(Nc4cnc(N5CCC(N6CCCC6)CC5)nc4)nc3N)c2cc1OC"
< 4.70

Entry "COc1cc2ncnc(-n3nc(Nc4ccc(Br)nc4)nc3N)c2cc1OC" : reported pIC50 = ?
< 4.70

Reported pIC50, compound "Cc1csc2c(-n3nc(Nc4cnc5c(c4)CN(C)CC5)nc3N)nc(Cl)nc12" : ____
< 4.70

Please report the recorded pIC50 for "Cc1csc2c(-n3nc(Nc4cnc5c(c4)CN(C4CCCC4)CC5)nc3N)ncnc12" .
> 6.00

Source listed as patent US8796259B2.
